Give measured abundance fitness for each item. Keep answers brief.
B1: POU domain, class 3, transcription factor 1, residues 247 to 324; numbered along this chain, Q03052 (parent)
chain: EDAPSSDDLEQFAKQFKQRRIKLGFTQADVGLALGTLYGNVFSQTTICRFEALQLSFKNMCKLKPLLNKWLEETDSSS

Variants of: B1
assay.protocol: abundance fitness (aPCA) (normalised: wild type 0, dead -1); higher = more abundant; growth selection in yeast, the domain comes from the species named
setup.conditions: Homo sapiens
Number, no unit, nothing else.

**Query** I'd like to know its abundance fitness. The variant in question is I47W
**Result** -0.408

**Query** I'd like to know its abundance fitness. The variant in question is T26E
**Result** -0.298

**Query** I'd like to know its abundance fitness. The variant in question is N40R
**Result** 0.07

**Query** I'd like to know its abundance fitness. The variant in question is T74V
**Result** 0.042

**Query** I'd like to know its abundance fitness. The variant in question is C48S
**Result** 0.144

**Query** I'd like to know its abundance fitness. The variant in question is L71F
**Result** -0.82

**Query** I'd like to know its abundance fitness. The variant in question is V30F
**Result** -0.485

**Query** I'd like to know its abundance fitness. The variant in question is F50N
**Result** -0.874

**Query** I'd like to know its abundance fitness. The variant in question is L55C
**Result** -0.064

**Query** I'd like to know its abundance fitness. The variant in question is R20Q
**Result** -0.733

**Query** I'd like to know its abundance fitness. The variant in question is D75I
**Result** -0.038
